Property: inhibition at 100 µM; scope: individual compounds
Target: angiotensin II receptor subtype 1 (AT1) (Oryctolagus cuniculus, UniProt P34976)
Construct: receptor : from adrenal glands in rabbits; from tissue; host or cells: rabbit adrenal glands
Sequence (P34976 whole entry): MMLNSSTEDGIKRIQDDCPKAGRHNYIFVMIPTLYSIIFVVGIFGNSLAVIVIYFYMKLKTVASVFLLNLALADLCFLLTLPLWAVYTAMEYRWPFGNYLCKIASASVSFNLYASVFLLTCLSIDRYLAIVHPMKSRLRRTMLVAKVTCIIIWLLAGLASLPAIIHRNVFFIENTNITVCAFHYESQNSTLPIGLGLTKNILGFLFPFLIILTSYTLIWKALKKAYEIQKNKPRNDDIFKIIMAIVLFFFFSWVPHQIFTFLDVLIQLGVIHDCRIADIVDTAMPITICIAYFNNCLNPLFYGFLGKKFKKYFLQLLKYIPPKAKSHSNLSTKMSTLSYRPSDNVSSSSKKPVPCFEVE
Experiment: Binding to receptors: angiotensin II receptor subtype 1 (AT1)
Parameters: species or system rabbits (adrenal glands)
Details: rabbit adrenal glands, tracer 3H-angiotensin II
parameterMeasured: inhibition at 100 µM

>>> valuereported("CCCCC(=O)N(Cc1ccc(C(=O)OCCCN)cc1)c1cc(C(=O)N2CCOCC2)ccc1N(C)C")
"0%"
>>> valuereported("CCCCC(=O)N(Cc1ccc(C(=O)OC2CNC(C(=O)OCC)C2)cc1)c1cc(C(=O)N2CCOCC2)ccc1N(C)C (stereo not shown)")
"11%"
>>> valuereported("CCCCC(=O)N(Cc1ccc(C(=O)O)cc1)c1cc(C(=O)N2CCN(CCC)CC2)ccc1C(C)C")
"11%"
>>> valuereported("CCCCC(=O)N(Cc1ccc(C(=O)O)cc1)c1cc(C(=O)N2CCN(C)CC2)ccc1C(C)C")
"0%"
>>> valuereported("CCCCC(=O)N(Cc1ccc(C(=O)OCCCN(C)C)cc1)c1cc(C(=O)N2CCOCC2)ccc1C(C)C")
"14%"
>>> valuereported("CCCCC(=O)N(Cc1ccc(C(=O)O)cc1)c1cc(C(=O)N(CC)CCN(CC)CC)ccc1C(C)C")
"4%"
>>> valuereported("CCCCCCC(=O)N(Cc1ccc(C(=O)O)cc1)c1cc(C(=O)N2CCN(CCC)CC2)ccc1N(C)C")
"0%"
>>> valuereported("CCCCC(=O)N(Cc1ccc(C(=O)OCCN(C)C)cc1)c1cc(C(=O)N2CCOCC2)ccc1N(C)C")
"10%"
>>> valuereported("CCCCCCCC(=O)N(Cc1ccc(C(=O)O)cc1)c1cc(C(=O)N2CCN(C)CC2)ccc1N(C)C")
"0%"
>>> valuereported("CCCCC(=O)N(Cc1ccc(C(=O)OCCN2CCOCC2)cc1)c1cc(C(=O)N2CCOCC2)ccc1C(C)C")
"13%"
>>> valuereported("CCCCC(=O)N(Cc1ccc(C(=O)OCCN(C)C)cc1)c1cc(C(=O)N2CCOCC2)ccc1C(C)C")
"11%"
>>> valuereported("CCCCCCC(=O)N(Cc1ccc(C(=O)O)cc1)c1cc(C(=O)N2CCN(C)CC2)ccc1N(C)C")
"0%"
>>> valuereported("CCCCCCC(=O)N(Cc1ccc(C(=O)O)cc1)c1cc(C(=O)N2CCN(C)CC2)ccc1C(C)C")
"11%"
